Every entry's value here was drawn from ChEMBL document CHEMBL1201862.

Tested on: RPMI-8226
assay-comment: NCI tumour cell line growth inhibition, 48 h
Calls of active or inactive are those of the source. No stated cut-off is given here; in the data, active = GI50 up to about 1.1 µM and inactive = higher.
Hi! Could you answer with just one of these? active, inactive

molecule: Cc1ccc(/C=N/Nc2ncccn2)s1
qualitative-label: inactive

molecule: CSC(=S)NNC(=O)c1ccncc1
qualitative-label: inactive

molecule: CCOC(=O)C1CCCc2sc(N)c(C#N)c21 (stereo not given)
qualitative-label: inactive

molecule: COC1/C=C/C(C)C(C(C)C(OC)C(C)CCC(=O)C(C)C(CCC(=O)O)OC)OC(=O)/C=C/C=C(\C)CC(OC)CC2=CC(=O)O[C@@H](C(C)C(OC)CC(OC)/C=C/C(C)C(OC)C1)[C@H]2O (stereo not given in full)
qualitative-label: active

molecule: Cc1cc2ncn(C3CCCO3)c2cc1C (stereo not given)
qualitative-label: inactive

molecule: Cc1cc(C#N)c(Nc2ccc(F)cc2[N+](=O)[O-])s1
qualitative-label: inactive

molecule: O=c1oc2cc(O)ccc2cc1-c1nc2ccccc2s1
qualitative-label: inactive

molecule: C=C1CC(C)(COc2ccc3c(C)c(Cl)c(=O)oc3c2)OC1=O (stereo not given)
qualitative-label: active

Could you please tell me the result logged for Fc1cccc(Cl)c1C1SCc2nc3ccccc3n21 (stereo not given) in this assay?
inactive

Returns: the outcome recorded for CC1=NN(C(=O)CC(=O)Nc2ccc(Cl)cc2)C(=O)C1/N=N\c1ccc(S(=O)(=O)c2ccc(/N=N/C3C(=O)N(C(=O)CC(=O)Nc4ccc(Cl)cc4)N=C3C)cc2)cc1 (stereo not given) in this assay.
inactive

---

Test system: TK-10
assay-comment: NCI tumour cell line growth inhibition, 48 h
Calls of active or inactive are those of the source. Rule as the data show it: active = GI50 up to about 1.1 µM and inactive = higher.
value-type: GI50

compound: CC1(C)OCN(c2ccc(S(N)(=O)=O)cc2)Cn2c1nc1ccccc12
tested-target: TK-10
GI50: > 100 µM (inactive)

For each entry beneath this line, provide reported GI50.
1. c1ccc(COC2C3COC(O3)C(OCc3ccccc3)C2OCc2ccccc2)cc1 (stereo unspecified)
2. COc1ccc(/C=C2\Sc3nnc(C)n3N=C2c2cc(F)c(Cl)cc2Cl)cc1OC

1: 70.5 µM (inactive); 2: 17.9 µM (inactive)

Batch request: GI50 for each of the following compounds.
1. NCCCNCCCCN1CCOC1=O
2. c1ccc2cc3c(cc2c1)nc1ccccn13
3. COc1ccc(C2(C3c4cc(OC)c(OC)cc4CCN3C)SCCCS2)cc1O (stereo unspecified)

1. > 100 µM (inactive)
2. > 100 µM (inactive)
3. > 100 µM (inactive)

---

System: UACC-257
assay-comment: NCI tumour cell line growth inhibition, 48 h
Activity calls are given as the source filed them. Rule as the data show it: active = GI50 up to about 1.1 µM and inactive = higher.
value-type: GI50

Give GI50 for all molecules that follow.
1. CCOC(=O)CO/N=C1/C(=C2/C(=O)Nc3ccccc32)Nc2ccccc21
2. Cc1ccc(/C=C/C(=O)c2sc(C(N)=S)nc2C)cc1

> 100 µM (inactive)
> 100 µM (inactive)

---

System: 786-0
assay-comment: NCI tumour cell line growth inhibition, 48 h
The source made the active and inactive calls. No stated cut-off is given here; in the data, active = GI50 up to about 1.1 µM and inactive = higher.
Kindly state GI50 for each of the entries shown.

Take a look at these entries with their results.
molecule: CCOC1Oc2ccccc2-c2nc(SC)ncc21 (stereo not given)
GI50: > 100 µM (inactive)

molecule: COC1OC(CO)C(O)C(OC(=O)c2cc(O)c(O)c(O)c2)C1OC(=O)c1cc(O)c(O)c(O)c1 (stereo not given)
GI50: > 100 µM (inactive)

molecule: COc1ccc(OC)c2sc(N3C(=O)/C(=C/Cc4ccco4)N=C3c3ccccc3)nc12
GI50: 35.5 µM (inactive)

For every item below, please supply its GI50.
1. O=c1c2ncn(C3CCCO3)c2n(-c2ccccc2)c(=S)n1-c1ccccc1 (stereo not given)
2. CCOC(=O)c1c2cccccc-2nc1Nc1cccc2c(C)ccnc12

["> 100 µM (inactive)", "> 10 µM (inactive)"]
